Test system: SARS-CoV-2 EG.5.1.1
Experiment: Inhibition of virus-induced cytopathic effect (MTT), SARS-CoV-2 EG.5.1.1
Format: cell-based
Settings: Severe acute respiratory syndrome coronavirus 2
Cut-off 1000 nM on IC50: below means true, at or above means false.

In [3]: df
Out[3]:
                            compound_smiles      measured_target  category
0  COc1cccc(CCC(=O)OC[C@H]2O[C@@H](n3ccc(NO)nc3=O)[C@H](O)[C@@H]2O)c1  SARS-CoV-2 EG.5.1.1      true
1  O=C(Cc1ccc(F)cc1)OC[C@H]1O[C@@H](n2ccc(NO)nc2=O)[C@H](O)[C@@H]1O  SARS-CoV-2 EG.5.1.1     false
2  Cc1cccc(OCC(=O)OC[C@H]2O[C@@H](n3ccc(NO)nc3=O)[C@H](O)[C@@H]2O)c1  SARS-CoV-2 EG.5.1.1      true
3  O=C(Cc1ccccc1Cl)OC[C@H]1O[C@@H](n2ccc(NO)nc2=O)[C@H](O)[C@@H]1O  SARS-CoV-2 EG.5.1.1     false
4  COc1ccc(CC(=O)OC[C@H]2O[C@@H](n3ccc(NO)nc3=O)[C@H](O)[C@@H]2O)cc1  SARS-CoV-2 EG.5.1.1      true
5  Cc1ccc(CC(=O)OC[C@H]2O[C@@H](n3ccc(NO)nc3=O)[C@H](O)[C@@H]2O)cc1  SARS-CoV-2 EG.5.1.1     false

----------
System: SARS-CoV-2 EG.5.1.1
Assay: Inhibition of virus-induced cytopathic effect (MTT), SARS-CoV-2 EG.5.1.1
Format: cell-based
Conditions: Severe acute respiratory syndrome coronavirus 2
Listing of recorded IC50 by entry.
endpoint: IC50

>>> print(df.to_string())
                                   compound      measured_target  value_reported
0  CC(C)C(=O)OC[C@H]1O[C@@H](n2ccc(NO)nc2=O)[C@H](O)[C@@H]1O [EIDD-2801, Molnupiravir, reference compound]  SARS-CoV-2 EG.5.1.1          530 nM
1  O=C(OC[C@H]1O[C@@H](n2ccc(NO)nc2=O)[C@H](O)[C@@H]1O)C1(c2ccccc2)CC1  SARS-CoV-2 EG.5.1.1     > 100000 nM
2  COc1cccc(CC(=O)OC[C@H]2O[C@@H](n3ccc(NO)nc3=O)[C@H](O)[C@@H]2O)c1  SARS-CoV-2 EG.5.1.1          530 nM
3  O=C(COc1ccccc1)OC[C@H]1O[C@@H](n2ccc(NO)nc2=O)[C@H](O)[C@@H]1O [SN_21, 5′-O-Phenoxyacetyl-N4-hydroxycytidine]  SARS-CoV-2 EG.5.1.1          830 nM
